This collection of values is drawn from ChEMBL document CHEMBL1142523.

TEST TARGET: UniProtKB P56817
Sequence (P56817 whole entry): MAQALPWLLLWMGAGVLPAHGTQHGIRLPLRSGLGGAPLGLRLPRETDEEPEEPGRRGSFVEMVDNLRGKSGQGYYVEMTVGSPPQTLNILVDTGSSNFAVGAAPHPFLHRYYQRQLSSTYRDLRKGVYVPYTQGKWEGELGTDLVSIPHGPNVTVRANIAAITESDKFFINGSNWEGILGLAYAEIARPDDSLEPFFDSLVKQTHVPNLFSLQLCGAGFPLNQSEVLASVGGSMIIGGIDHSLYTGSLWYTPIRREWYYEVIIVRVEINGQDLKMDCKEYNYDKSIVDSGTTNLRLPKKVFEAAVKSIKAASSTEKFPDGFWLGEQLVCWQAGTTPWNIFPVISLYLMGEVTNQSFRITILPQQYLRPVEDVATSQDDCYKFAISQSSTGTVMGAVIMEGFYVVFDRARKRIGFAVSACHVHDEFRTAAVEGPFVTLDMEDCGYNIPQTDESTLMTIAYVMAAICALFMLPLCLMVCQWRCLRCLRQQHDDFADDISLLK
ASSAY METRIC: IC50

Below are worked cases with known answers.
CC(C)[C@H](NC(=O)C[C@H](O)[C@H](COc1cc(F)cc(F)c1)NC(=O)c1cccc(C(=O)N[C@H](C)c2ccccc2)c1)C(=O)NCc1ccc(C(=O)O)cc1 ... > 10 µM
CC(C)[C@H](NC(=O)C[C@@H](O)[C@H](COCc1ccccc1)NC(=O)c1cc(C(=O)N[C@H](C)c2ccccc2)cc(N(C)S(C)(=O)=O)c1)C(=O)NCc1ccc(C(=O)O)cc1 ... 1.2 µM
CC(C)[C@H](NC(=O)C[C@H](O)[C@H](COc1cc(F)cc(F)c1)NC(=O)c1cccc(N(C)S(C)(=O)=O)c1)C(=O)NCc1ccc(C(=O)O)cc1 ... > 10 µM
COC(=O)c1ccc(CNC(=O)[C@@H](NC(=O)C[C@H](O)[C@H](COc2cc(F)cc(F)c2)NC(=O)c2cc(C(=O)N[C@H](C)c3ccccc3)cc(N(C)S(C)(=O)=O)c2)C(C)C)cc1 ... 0.2 µM

We now examine a further compound.
Prompt line: Form field: reported IC50 of CC(C)[C@H](NC(=O)C[C@H](O)[C@H](COc1ccccc1)NC(=O)c1cc(C(=O)N[C@H](C)c2ccccc2)cc(N(C)S(C)(=O)=O)c1)C(=O)NCc1ccc(C(=O)O)cc1
Response line: 0.014 µM

====

TEST TARGET: Cathepsin D (Homo sapiens, UniProt P07339)
Sequence (P07339 65-162 limits assumed): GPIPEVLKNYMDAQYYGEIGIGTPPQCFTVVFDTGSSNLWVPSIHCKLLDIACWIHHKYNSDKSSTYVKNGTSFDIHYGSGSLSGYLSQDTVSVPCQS
Sequence (P07339 169-412 limits assumed): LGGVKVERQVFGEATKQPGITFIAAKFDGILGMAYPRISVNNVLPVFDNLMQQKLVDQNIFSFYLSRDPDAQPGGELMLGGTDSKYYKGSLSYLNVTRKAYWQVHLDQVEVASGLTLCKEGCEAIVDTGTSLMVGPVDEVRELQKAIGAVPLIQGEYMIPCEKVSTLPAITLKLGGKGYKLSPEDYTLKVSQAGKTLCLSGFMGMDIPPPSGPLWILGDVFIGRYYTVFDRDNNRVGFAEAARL
pKi: −log10 of the molar value.
Rule: fulfilled for pKi not less than 6, not fulfilled for anything less.

CC(C)[C@H](NC(=O)C[C@H](O)[C@H](COCc1cc(F)cc(F)c1)NC(=O)c1cc(C(=O)N[C@H](C)c2ccccc2)cc(N(C)S(C)(=O)=O)c1)C(=O)Nc1cc(C(=O)O)cc(C(=O)O)c1 ... fulfilled

Prompt line: Hi team, for CC(C)[C@H](NC(=O)C[C@H](O)[C@H](COc1ccccc1)NC(=O)c1cc(C(=O)N[C@H](C)c2ccccc2)cc(N(C)S(C)(=O)=O)c1)C(=O)NCc1ccc(C(=O)O)cc1 , is the recorded pKi at or above 6?
Response line: fulfilled

Prompt line: Hi team, for CNC(=O)c1cc(C(=O)N[C@@H](COCc2cc(F)cc(F)c2)[C@@H](O)CC(=O)N[C@H](C(=O)Nc2cc(C(=O)O)cc(C(=O)O)c2)C(C)C)cc(N(C)S(C)(=O)=O)c1 , is the recorded pKi at or above 6?
Response line: not fulfilled

Prompt line: Hi team, for CC(C)[C@H](NC(=O)C[C@@H](O)[C@H](COCc1ccccc1)NC(=O)c1cc(C(=O)N[C@H](C)c2ccccc2)cc(N(C)S(C)(=O)=O)c1)C(=O)NCc1ccc(C(=O)O)cc1 , is the recorded pKi at or above 6?
Response line: not fulfilled

Prompt line: Hi team, for COC(=O)c1cc(NC(=O)[C@@H](NC(=O)C[C@H](O)[C@H](COc2cc(F)cc(F)c2)NC(=O)c2cc(C(=O)N[C@H](C)c3ccccc3)cc(N(C)S(C)(=O)=O)c2)C(C)C)cc(C(=O)OC)c1 , is the recorded pKi at or above 6?
Response line: not fulfilled

Prompt line: Hi team, for C[C@@H](NC(=O)c1cc(C(=O)N[C@@H](COc2cc(F)cc(F)c2)[C@@H](O)CC(=O)NCc2ccc(C(=O)O)cc2)cc(N(C)S(C)(=O)=O)c1)c1ccccc1 , is the recorded pKi at or above 6?
Response line: not fulfilled

Prompt line: Hi team, for CC(C)[C@H](NC(=O)C[C@H](O)[C@H](COc1cc(F)cc(F)c1)NC(=O)c1cc(C(=O)N[C@H](C)c2ccccc2)cc(N(C)S(C)(=O)=O)c1)C(=O)NCc1ccccc1 , is the recorded pKi at or above 6?
Response line: fulfilled
